These entries and their values trace back to patent US7220768B2.

system: HCMV; test: Human cytomegalovirus yield / microtiter plate assay; type: cell-based; conditions: Human betaherpesvirus 5, Fibroblast; human foreskin fibroblasts
Kindly state IC50 for each of the entries shown.
Give the quantity in µg/mL, number only.

### Prompt Let me know recorded IC50 for CC(NC(=S)Nc1ccc(-c2conc2-c2ccc(N)cc2)cc1)c1ccc(F)cc1 (stereo not drawn) , thanks.
### Response 2

### Prompt Retrieve IC50 measured for CC(NC(=S)Nc1ccc(-c2conc2-c2ccccc2O)cc1)c1ccc(F)cc1 (stereo not drawn) and print it.
### Response 7.9

### Prompt Please report IC50 for the following compound: CC(NC(=S)Nc1ccc(-c2conc2-c2csnn2)cc1)c1ccc(F)cc1 (stereo not drawn)
### Response 0.9

### Prompt Write down IC50 measured for item CC(NC(=S)Nc1ccc(-c2conc2-c2ccnc3ccccc23)cc1)c1ccc(F)cc1 (stereo not drawn)
### Response 0.8

### Prompt // Input: CC(NC(=S)Nc1ccc(-c2nocc2CO)cc1)c1ccc(F)cc1 (stereo not drawn) . Output its IC50 only.
### Response 5.7

====

system: HCMV; test: Human cytomegalovirus yield / microtiter plate assay; assay type: cell-based; conditions: Human betaherpesvirus 5, Fibroblast; human foreskin fibroblasts
Label y when IC50 < 2 µg/mL; otherwise n.

### Prompt Hello, I'm reviewing records and need to know if IC50 of CC(NC(=S)Nc1ccc(-c2conc2-c2ccc(N(C)C)cc2)cc1)c1ccc(F)cc1 (stereo not shown) [Example 21] is below 2 µg/mL. Could you check?
### Response n

### Prompt Lab note: IC50 threshold 2 µg/mL. Does this compound come in strictly under it? CC(NC(=S)Nc1ccc(-c2nocc2Cc2ccccc2)cc1)c1ccc(F)cc1 (stereo not shown) [Example 10]
### Response n

### Prompt Bench note: check whether CC(NC(=S)Nc1ccc(-c2nocc2Cc2ccc(F)cc2)cc1)c1ccc(F)cc1 (stereo not shown) [Example 11] shows IC50 below 2 µg/mL
### Response y

### Prompt Record CC(NC(=S)Nc1ccc(-c2nocc2C(C)(C)C)cc1)c1ccc(F)cc1 (stereo not shown) [Example 13] : is its IC50 strictly below 2 µg/mL?
### Response y

### Prompt Hello, is IC50 of the following compound strictly smaller than 2 µg/mL? CC(NC(=S)Nc1ccc(-c2conc2-c2ccc(O)cc2)cc1)c1ccc(F)cc1 (stereo not shown) [Example 22]
### Response n

### Prompt Lab log: compare recorded IC50 with 2 µg/mL; is it strictly lower for CC(NC(=S)Nc1ccc(-c2conc2-c2ncc[nH]2)cc1)c1ccc(F)cc1 (stereo not shown) [Example 24] ?
### Response n

### Prompt I'd appreciate it if you could check whether CC(NC(=S)Nc1ccc(-c2conc2-c2ccncc2)cc1)c1ccc(F)cc1 (stereo not shown) [Example 17] has IC50 smaller than 2 µg/mL.
### Response y
